Source: patent US20260263614A1

Recorded kon by entry
ASSAYED SYSTEM: T1, huCDCP1(F30-T667 Q525)-8×His_T3 (human, UniProt Q9H5V8 30-667)
T1 construct: The construct name gives the limits F30-T667 and Q525; also called recombinant CDCP1 ECD; CDCP1 ECD
T1 sequence (Q9H5V8 other isoform, or with tags, fused parts or gaps): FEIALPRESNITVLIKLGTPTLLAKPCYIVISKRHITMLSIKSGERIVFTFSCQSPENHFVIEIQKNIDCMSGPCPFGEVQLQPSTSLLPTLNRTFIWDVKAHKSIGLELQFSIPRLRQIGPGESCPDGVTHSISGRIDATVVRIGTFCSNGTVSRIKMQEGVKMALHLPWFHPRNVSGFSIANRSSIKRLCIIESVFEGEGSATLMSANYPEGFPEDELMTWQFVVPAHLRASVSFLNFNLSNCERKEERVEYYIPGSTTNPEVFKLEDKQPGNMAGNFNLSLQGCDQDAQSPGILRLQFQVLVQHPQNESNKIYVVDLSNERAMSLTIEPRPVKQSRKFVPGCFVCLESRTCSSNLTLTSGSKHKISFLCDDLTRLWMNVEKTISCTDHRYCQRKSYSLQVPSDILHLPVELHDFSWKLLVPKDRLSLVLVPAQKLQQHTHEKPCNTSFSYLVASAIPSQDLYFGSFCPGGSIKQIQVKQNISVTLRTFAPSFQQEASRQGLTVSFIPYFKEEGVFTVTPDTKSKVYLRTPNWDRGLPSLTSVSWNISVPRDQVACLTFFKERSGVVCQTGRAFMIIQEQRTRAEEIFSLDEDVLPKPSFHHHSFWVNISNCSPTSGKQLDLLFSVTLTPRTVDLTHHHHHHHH
MEASUREMENT NOTES: SPR, huCDCP1(F30-T667 Q525)-8×His_T3 as analyte; mAb lot T14

>  <BINDER>
CDCP1-vcMMAE (DAR of 4) (antibody, V domains shown, vc-MMAE (Val-Cit linker, monomethyl auristatin E) conjugated to the antibody, DAR of 4; sites not stated, also called CDCP1-MMAE) VH: EVQLLESGGGLVQPGGSLRLSCAASGFTFSNYAMNWVRQAPGKGLEWVSAISGGGGSTYYADSVKGRFTISRDNSKNTLYLQMNSLRAEDTAVYYCAKESITMVRGVMDYYGMDVWGQGTTVTVSS VL: DIQLTQSPSFLSASVGDRVTITCRASQGISSYLAWYQQKPGKAPKLLIYAASTLQGGVPSRFSGSGSGTEFTLTISSLQPEDFATYYCQHLNRFPRTFGQGTKVEIK

>  <kon>
629000 M⁻¹ s⁻¹

$$$$
>  <BINDER>
ADC4 (CDCP1 mAb conjugated to compound 30, DAR of 4) (antibody, IgG1, V domains shown, compound 30 (Mal-amido-PEG8-Val-Ala-exatecan) conjugated stochastically to reduced cysteines of the IgG1, average DAR 4; sites not stated) VH: EVQLLESGGGLVQPGGSLRLSCAASGFTFSNYAMNWVRQAPGKGLEWVSAISGGGGSTYYADSVKGRFTISRDNSKNTLYLQMNSLRAEDTAVYYCAKESITMVRGVMDYYGMDVWGQGTTVTVSS VL: DIQLTQSPSFLSASVGDRVTITCRASQGISSYLAWYQQKPGKAPKLLIYAASTLQGGVPSRFSGSGSGTEFTLTISSLQPEDFATYYCQHLNRFPRTFGQGTKVEIK

>  <kon>
663000 M⁻¹ s⁻¹

$$$$
>  <BINDER>
ADC3 (CDCP1 mAb conjugated to compound 30, DAR of 8) (antibody, IgG1, V domains shown, compound 30 (Mal-amido-PEG8-Val-Ala-exatecan) conjugated stochastically to reduced cysteines of the IgG1, average DAR 7.3 (called DAR of 8); sites not stated, also called CDCP1-targeted exatecan conjugate) VH: EVQLLESGGGLVQPGGSLRLSCAASGFTFSNYAMNWVRQAPGKGLEWVSAISGGGGSTYYADSVKGRFTISRDNSKNTLYLQMNSLRAEDTAVYYCAKESITMVRGVMDYYGMDVWGQGTTVTVSS VL: DIQLTQSPSFLSASVGDRVTITCRASQGISSYLAWYQQKPGKAPKLLIYAASTLQGGVPSRFSGSGSGTEFTLTISSLQPEDFATYYCQHLNRFPRTFGQGTKVEIK

>  <kon>
740000 M⁻¹ s⁻¹

$$$$
>  <BINDER>
ADC2 (CDCP1 mAb conjugated to compound 20, DAR of 4) (antibody, IgG1, V domains shown, compound 20 (maleimide-Val-Ala-PDD linker-payload) conjugated stochastically to reduced cysteines of the IgG1, average DAR 4.2; sites not stated) VH: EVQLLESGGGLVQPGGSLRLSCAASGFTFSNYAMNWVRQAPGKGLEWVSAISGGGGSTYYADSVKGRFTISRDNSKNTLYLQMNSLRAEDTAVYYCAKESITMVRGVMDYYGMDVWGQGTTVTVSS VL: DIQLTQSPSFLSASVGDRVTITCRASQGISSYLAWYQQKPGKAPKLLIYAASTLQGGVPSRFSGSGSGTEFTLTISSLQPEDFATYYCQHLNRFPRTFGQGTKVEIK

>  <kon>
589000 M⁻¹ s⁻¹

$$$$
